Tested on: platelet
assay_protocol: Blood platelet aggregation inhibiting effect (collagen-induced)
Assay type: cell-based, rabbits
settings: Oryctolagus cuniculus, Platelet; 10^-4 mole, collagen inducer, rabbit PRP; read-out: Blood platelet agg. inh.: percentage inhibition of platelet aggregation
reported_metric: inhibition at 100 µM
Answers without a unit are incomplete; give the number and then its unit.

So for CCc1cc(CC)c(C(=O)c2ccccc2)c(CC)c1 , the logged inhibition at 100 µM turned out to be 14.3%

So for Cc1ccc(C(=O)c2ccccc2)c(C)c1 , the logged inhibition at 100 µM turned out to be 17.4%

So for Cc1ccc(C(=O)c2ccccc2F)c(C)c1 , the logged inhibition at 100 µM turned out to be 18.5%

So for CCCc1ccc(C(=O)c2ccc(OC)cc2)cc1 , the logged inhibition at 100 µM turned out to be 24.4%

So for CCCCCCc1ccc(C(=O)c2ccccc2)cc1 , the logged inhibition at 100 µM turned out to be 10.5%

So for CCCCCc1ccc(C(=O)c2ccccc2F)cc1 , the logged inhibition at 100 µM turned out to be 14.6%

So for CCCc1ccc(C(=O)c2ccccc2F)cc1 , the logged inhibition at 100 µM turned out to be 23%

So for CCCCc1ccc(C(=O)Cc2ccccc2)cc1 , the logged inhibition at 100 µM turned out to be 2.6%

So for CCCCCc1ccc(C(=O)c2ccc(OC)cc2)cc1 , the logged inhibition at 100 µM turned out to be 17.7%

So for CCCCc1ccc(C(=O)c2ccccc2C)cc1 , the logged inhibition at 100 µM turned out to be 11.9%

---

Tested on: hind paws of male rats
assay_protocol: Anti-inflammatory effect: acute carragheenin edema method
Assay type: in vivo
settings: Rattus norvegicus; 100 mg/kg oral, carragheenin edema, male rats (Table 2'); read-out: Anti-inf.: edema inhibition rate
Method: The edema was induced by subcutaneous injection of 1% carragheenin suspension in saline to the hind paws of male rats weighting 150 to 180 g. Each sample was orally given at the dosage of 100 mg/kg just before the inoculation of carragheenin.
Exercise: for every item that follows, state its recorded inhibition in vivo at 100 mg/kg.
Numbers only; they are read as %.

So for Cc1cc(C)c(C(=O)c2ccccc2Br)c(C)c1 [compound 147] , the logged inhibition in vivo at 100 mg/kg turned out to be 20.4

So for CCCc1ccc(C(=O)c2ccccc2Cl)cc1 [compound 132] , the logged inhibition in vivo at 100 mg/kg turned out to be 14.9

So for Cc1ccc(C(=O)c2ccc(I)cc2)c(C)c1 [compound 165] , the logged inhibition in vivo at 100 mg/kg turned out to be 19.2

So for CCCCCc1ccc(C(=O)c2cccc(Cl)c2)cc1 [compound 140] , the logged inhibition in vivo at 100 mg/kg turned out to be 14.9

So for Cc1cc(C)c(C(=O)c2ccc(I)cc2)c(C)c1 [compound 166] , the logged inhibition in vivo at 100 mg/kg turned out to be 21.5

So for Cc1ccc(C(=O)c2ccccc2I)c(C)c1 [compound 158] , the logged inhibition in vivo at 100 mg/kg turned out to be 32.7

So for CCCc1ccc(C(=O)c2ccccc2I)cc1 [compound 154] , the logged inhibition in vivo at 100 mg/kg turned out to be 29

So for CCCCCCCCc1ccc(C(=O)c2cccc(Cl)c2)cc1 [compound 141] , the logged inhibition in vivo at 100 mg/kg turned out to be 13.8
